Data credit: ChEMBL document CHEMBL1777732

- target: UniProtKB P41594
- assay-procedure: Negative allosteric modulation of human mGluR5 expressed in HEK293 cells assessed as inhibition of L-glutamate-induced calcium mobilization by FLIPR assay
- Type: functional, cell-based
- conditions: read-out: IC50
- Sequence (P41594 whole entry): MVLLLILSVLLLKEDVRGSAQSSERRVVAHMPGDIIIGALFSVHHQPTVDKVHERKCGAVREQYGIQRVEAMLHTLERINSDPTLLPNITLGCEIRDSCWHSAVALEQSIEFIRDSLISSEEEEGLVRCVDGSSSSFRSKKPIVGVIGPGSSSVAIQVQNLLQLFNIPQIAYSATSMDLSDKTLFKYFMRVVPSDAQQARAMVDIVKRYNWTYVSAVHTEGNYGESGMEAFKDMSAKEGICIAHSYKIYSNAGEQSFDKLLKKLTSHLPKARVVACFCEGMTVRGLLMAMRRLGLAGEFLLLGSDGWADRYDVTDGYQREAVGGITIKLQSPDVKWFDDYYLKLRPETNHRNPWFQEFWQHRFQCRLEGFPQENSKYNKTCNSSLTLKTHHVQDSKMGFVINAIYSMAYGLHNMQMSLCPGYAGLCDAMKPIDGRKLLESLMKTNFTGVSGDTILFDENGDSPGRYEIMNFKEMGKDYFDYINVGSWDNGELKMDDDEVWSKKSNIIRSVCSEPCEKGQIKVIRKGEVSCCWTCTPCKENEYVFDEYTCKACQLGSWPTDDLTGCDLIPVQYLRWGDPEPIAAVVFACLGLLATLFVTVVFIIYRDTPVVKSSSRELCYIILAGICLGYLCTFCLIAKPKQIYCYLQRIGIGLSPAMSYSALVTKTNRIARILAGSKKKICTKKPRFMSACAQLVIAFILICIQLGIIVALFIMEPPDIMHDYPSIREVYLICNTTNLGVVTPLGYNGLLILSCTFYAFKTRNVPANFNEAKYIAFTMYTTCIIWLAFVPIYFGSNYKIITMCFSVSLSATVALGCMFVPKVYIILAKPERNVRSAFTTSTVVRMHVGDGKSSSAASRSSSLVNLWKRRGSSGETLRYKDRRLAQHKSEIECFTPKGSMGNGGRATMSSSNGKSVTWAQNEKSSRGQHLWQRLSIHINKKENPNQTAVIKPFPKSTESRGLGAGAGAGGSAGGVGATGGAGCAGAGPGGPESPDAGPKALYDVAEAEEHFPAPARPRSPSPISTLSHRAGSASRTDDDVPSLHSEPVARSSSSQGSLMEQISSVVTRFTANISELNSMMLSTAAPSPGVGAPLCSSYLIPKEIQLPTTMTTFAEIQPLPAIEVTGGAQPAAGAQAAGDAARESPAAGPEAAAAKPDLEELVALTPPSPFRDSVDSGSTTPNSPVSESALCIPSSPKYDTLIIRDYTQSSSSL
Decision: IC50 beneath 400 nM gives Yes; IC50 meeting or exceeding 400 nM gives No.

Worked examples, 6 molecules total:
* O=C1c2ccc(C#Cc3ccccn3)nc2CCN1C1CCCC1 | Yes
* CC(C)N1CCc2nc(C#Cc3ccccn3)ccc2C1=O | Yes
* CN1CCc2nc(C#Cc3cccc(Cl)c3)ccc2C1=O | Yes
* CC(C)N1CCc2nc(C#Cc3ccccc3)ccc2C1=O | No
* CC(C)N1CCc2nc(C#Cc3ccccc3Cl)ccc2C1=O | No
* O=C1c2ccc(C#Cc3ccccn3)nc2CCN1C1CCCCC1 | No

Task: Is 400 nM strictly greater than the molecule's reported IC50? molecule: `Cc1ccccc1C#Cc1ccc2c(n1)CCN(C)C2=O`
Output: No

Task: Is 400 nM strictly greater than the molecule's reported IC50? molecule: `CN1CCc2nc(C#Cc3ccc(Cl)cc3)ccc2C1=O`
Output: Yes

Task: Is 400 nM strictly greater than the molecule's reported IC50? molecule: `Cc1ccccc1C#Cc1ccc2c(n1)CCN(C(C)C)C2=O`
Output: No

Task: Is 400 nM strictly greater than the molecule's reported IC50? molecule: `CN1CCc2nc(C#Cc3ccccc3)ccc2C1=O`
Output: Yes

Task: Is 400 nM strictly greater than the molecule's reported IC50? molecule: `CC(C)N1CCc2nc(C#Cc3cccc(Cl)c3)ccc2C1=O`
Output: Yes

Task: Is 400 nM strictly greater than the molecule's reported IC50? molecule: `CC(C)N1CCc2nc(C#Cc3cccs3)ccc2C1=O`
Output: Yes

----------
Field: Emax. Provide a value for each of the compounds that follow.
- target: Metabotropic glutamate receptor 5 (Homo sapiens)
- assay-procedure: Positive allosteric modulation of human mGluR5 expressed in HEK293 cells assessed as increase of L-glutamate-induced calcium mobilization at 10 uM by FLIPR assay relative to L-glutamate
- Assay type: functional, cell-based
- Sequence (P41594 21-1212 limits assumed): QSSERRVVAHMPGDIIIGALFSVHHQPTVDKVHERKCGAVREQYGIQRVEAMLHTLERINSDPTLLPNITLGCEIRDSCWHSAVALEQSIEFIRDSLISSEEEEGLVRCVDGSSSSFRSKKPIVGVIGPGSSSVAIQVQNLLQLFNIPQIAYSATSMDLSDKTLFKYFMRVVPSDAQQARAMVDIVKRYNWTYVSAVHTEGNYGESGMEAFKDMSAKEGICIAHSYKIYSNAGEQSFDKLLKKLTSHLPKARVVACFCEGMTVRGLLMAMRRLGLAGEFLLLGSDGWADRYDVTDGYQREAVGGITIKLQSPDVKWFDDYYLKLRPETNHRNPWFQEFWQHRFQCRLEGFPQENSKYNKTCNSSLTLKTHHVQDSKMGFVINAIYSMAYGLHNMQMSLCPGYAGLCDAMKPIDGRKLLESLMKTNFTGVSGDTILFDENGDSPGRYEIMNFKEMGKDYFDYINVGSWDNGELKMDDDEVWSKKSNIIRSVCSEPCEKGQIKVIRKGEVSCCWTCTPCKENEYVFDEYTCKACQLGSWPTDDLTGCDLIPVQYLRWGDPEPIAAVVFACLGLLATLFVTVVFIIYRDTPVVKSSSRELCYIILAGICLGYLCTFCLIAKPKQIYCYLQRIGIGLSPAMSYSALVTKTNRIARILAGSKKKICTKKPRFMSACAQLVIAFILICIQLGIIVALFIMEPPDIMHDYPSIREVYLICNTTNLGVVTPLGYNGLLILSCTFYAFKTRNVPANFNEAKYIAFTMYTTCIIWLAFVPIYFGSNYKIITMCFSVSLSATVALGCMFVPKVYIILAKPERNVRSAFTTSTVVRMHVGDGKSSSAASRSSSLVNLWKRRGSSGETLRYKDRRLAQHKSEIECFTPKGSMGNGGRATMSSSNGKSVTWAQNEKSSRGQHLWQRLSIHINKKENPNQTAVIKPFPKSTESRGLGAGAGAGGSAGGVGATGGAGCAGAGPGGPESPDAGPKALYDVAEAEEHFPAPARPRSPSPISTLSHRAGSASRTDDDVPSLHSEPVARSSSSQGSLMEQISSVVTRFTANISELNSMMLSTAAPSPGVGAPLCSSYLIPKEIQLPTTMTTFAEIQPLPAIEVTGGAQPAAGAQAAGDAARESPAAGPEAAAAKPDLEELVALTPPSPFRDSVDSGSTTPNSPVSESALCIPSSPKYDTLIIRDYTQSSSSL

Would you please look over these solved cases?
• O=C1c2ccc(C#Cc3ccccc3)nc2CCN1C1CCCCC1 = 122%
• O=C1c2ccc(C#Cc3cccc(Cl)c3)nc2CCN1C1CCCC1 = 87%
• O=C1c2ccc(C#Cc3ccc(Cl)cc3)nc2CCN1C1CCCC1 = 98%
• O=C(NC1CCCC1)c1ccc(C#Cc2ccccc2)nc1 = 106%
• Cc1ccc(C#Cc2ccc3c(n2)CCN(C(C)C)C3=O)cc1 = 28%
• CC(C)NC(=O)c1ccc(C#Cc2ccccc2)nc1 = 61%
• O=C1c2ccc(C#Cc3cccc(Cl)c3)nc2CCN1C1CCCCC1 = 47%
• O=C1c2ccc(C#Cc3ccccc3Cl)nc2CCN1C1CCCCC1 = 68%

Respectfully, I request Emax for each entry included below.
1. Cc1ccccc1C#Cc1ccc2c(n1)CCN(C1CCCCC1)C2=O
2. O=C1c2ccc(C#Cc3cccnc3)nc2CCN1C1CCCCC1
3. Cc1cccc(C#Cc2ccc3c(n2)CCN(C2CCCC2)C3=O)c1
4. COc1cccc(C#Cc2ccc3c(n2)CCN(C2CCCC2)C3=O)c1
5. Cc1cccc(C#Cc2ccc3c(n2)CCN(C2CCCCC2)C3=O)c1
6. O=C1c2ccc(C#Cc3ccccc3)nc2CCN1C1CCCC1

Output:
1: 62%; 2: 73%; 3: 97%; 4: 25%; 5: 54%; 6: 109%

Respectfully, I request Emax for each entry included below.
1. O=C1c2ccc(C#Cc3ccccc3Cl)nc2CCN1C1CCCC1
2. O=C(NC1CCCC1)c1ccc(C#Cc2cccnc2)nc1
3. Cc1ccccc1C#Cc1ccc2c(n1)CCN(C1CCCC1)C2=O
4. Cc1ccc(C#Cc2ccc3c(n2)CCN(C2CCCC2)C3=O)cc1
5. O=C1c2ccc(C#Cc3cccs3)nc2CCN1C1CCCCC1
6. O=C1c2ccc(C#Cc3cccnc3)nc2CCN1C1CCCC1

Output:
115%
68%
107%
97%
112%
68%

Task: Please supply the value of reported Emax for the item `O=C1c2ccc(C#Cc3cccs3)nc2CCN1C1CCCC1`
Output: 103%

----------
Field: pKi. Provide a value for each of the compounds that follow.
- target: Metabotropic glutamate receptor 5 (Homo sapiens)
Give bare numbers, as −log10 of the molar value.

Would you please look over these solved cases?
- O=C1c2ccc(C#Cc3cccs3)nc2CCN1C1CCCCC1: 6.14
- Cc1ccc(C#Cc2ccc3c(n2)CCN(C(C)C)C3=O)cc1: 4.70
- CN1CCc2nc(C#Cc3ccccc3)ccc2C1=O: 6.12
- CC(C)N1CCc2nc(C#Cc3ccccc3Cl)ccc2C1=O: 5.25

Respectfully, I request pKi for each entry included below.
1. CN1CCc2nc(C#Cc3cccs3)ccc2C1=O
2. CN1CCc2nc(C#Cc3cccnc3)ccc2C1=O
3. O=C1c2ccc(C#Cc3ccccn3)nc2CCN1C1CCCC1

Output:
5.66
4.56
5.75

Respectfully, I request pKi for each entry included below.
1. CNC(=O)c1ccc(C#Cc2ccccc2)nc1
2. CC(C)N1CCc2nc(C#Cc3ccc(Cl)cc3)ccc2C1=O

Output:
4.82
4.57

----------
Field: EC50. Provide a value for each of the compounds that follow.
- target: Metabotropic glutamate receptor 5 (Homo sapiens, UniProt P41594)
- assay-procedure: Positive allosteric modulation of human mGluR5 expressed in HEK293 cells assessed as increase of L-glutamate-induced calcium mobilization by FLIPR assay
- Assay type: functional, cell-based
- conditions: read-out: EC50
Answers are plain numbers, in nM.

Would you please look over these solved cases?
• O=C1c2ccc(C#Cc3ccccc3Cl)nc2CCN1C1CCCC1 = 393
• O=C(NC1CCCC1)c1ccc(C#Cc2ccccc2)nc1 = 19
• Cc1ccccc1C#Cc1ccc2c(n1)CCN(C1CCCC1)C2=O = 239

Respectfully, I request EC50 for each entry included below.
1. O=C1c2ccc(C#Cc3cccnc3)nc2CCN1C1CCCC1
2. O=C1c2ccc(C#Cc3ccccc3Cl)nc2CCN1C1CCCCC1

Output:
748
924

Respectfully, I request EC50 for each entry included below.
1. O=C1c2ccc(C#Cc3cccs3)nc2CCN1C1CCCC1
2. O=C1c2ccc(C#Cc3ccc(Cl)cc3)nc2CCN1C1CCCC1
3. Cc1ccc(C#Cc2ccc3c(n2)CCN(C(C)C)C3=O)cc1
4. CC(C)NC(=O)c1ccc(C#Cc2ccccc2)nc1
5. Cc1ccccc1C#Cc1ccc2c(n1)CCN(C1CCCCC1)C2=O
6. O=C1c2ccc(C#Cc3cccnc3)nc2CCN1C1CCCCC1

Output:
[12, 979, 1010, 62, 466, 387]

Respectfully, I request EC50 for each entry included below.
1. O=C1c2ccc(C#Cc3ccccc3)nc2CCN1C1CCCC1
2. O=C1c2ccc(C#Cc3cccc(Cl)c3)nc2CCN1C1CCCCC1
3. O=C1c2ccc(C#Cc3cccs3)nc2CCN1C1CCCCC1

Output:
1. 5.9
2. 171
3. 13

----------
Recorded below: Ki, system Metabotropic glutamate receptor 5 (Homo sapiens, UniProt P41594).

Would you please look over these solved cases?
- COc1cccc(C#Cc2ccc3c(n2)CCN(C2CCCC2)C3=O)c1: > 32 µM
- O=C1c2ccc(C#Cc3cccnc3)nc2CCN1C1CCCC1: > 32 µM

Would you kindly look at the next entry?
Task: Please supply the value of reported Ki for the item `O=C1c2ccc(C#Cc3ccc(Cl)cc3)nc2CCN1C1CCCCC1`
Output: > 32 µM
